measurement.protocol: activity coefficient (dimensionless); of the first substance listed, at infinite dilution; xn = mol fraction of the nth substance listed
condition.details: 323.15 K; 101.3 kPa; Liquid; Chromatography; x1 = 0
Parameter class (string): assigned from measured activity coefficient. Ranges: bottom end = under 100, midrange = from 100 up to 300, top end = 300 and over

compound | discrete.label
Cc1cccc(C)c1 [1,3-dimethylbenzene] + CCn1cc[n+](C)c1.COP(=O)([O-])OC | bottom end
CCCCCCCC [octane] + CCn1cc[n+](C)c1.COP(=O)([O-])OC | midrange
CCCCC [pentane] + CCn1cc[n+](C)c1.COP(=O)([O-])OC | midrange
CCCCCCC [heptane] + COP(=O)([O-])OC.Cn1cc[n+](C)c1 | midrange
CCCCCCCC [octane] + COP(=O)([O-])OC.Cn1cc[n+](C)c1 | top end
Cc1ccc(C)cc1 [1,4-dimethylbenzene] + COP(=O)([O-])OC.Cn1cc[n+](C)c1 | bottom end
CCCCCCCCCC [decane] + CCn1cc[n+](C)c1.COP(=O)([O-])OC | top end
CCCCCCCCCC [decane] + COP(=O)([O-])OC.Cn1cc[n+](C)c1 | top end
CCCCC [pentane] + COP(=O)([O-])OC.Cn1cc[n+](C)c1 | midrange

====

measurement.protocol: activity coefficient (dimensionless); of the first substance listed, at infinite dilution; xn = mol fraction of the nth substance listed
condition.details: 333.15 K; 101.3 kPa; Liquid; Chromatography; x1 = 0

compound | activity coefficient
CCCCCCCCCC [decane] + COP(=O)([O-])OC.Cn1cc[n+](C)c1 | 466
CCCCCCCCC [nonane] + COP(=O)([O-])OC.Cn1cc[n+](C)c1 | 368
CCCCCCCCCC [decane] + CCn1cc[n+](C)c1.COP(=O)([O-])OC | 354
CCCCCCC [heptane] + COP(=O)([O-])OC.Cn1cc[n+](C)c1 | 258

====

Below: a set of entries, each annotated with reported activity coefficient.
measurement.protocol: activity coefficient (dimensionless); of the first substance listed, at infinite dilution; xn = mol fraction of the nth substance listed
condition.details: 313.15 K; 101.3 kPa; Liquid; Chromatography; x1 = 0
property: activity coefficient

molecule | reported.result
CCCCCC [hexane] + COP(=O)([O-])OC.Cn1cc[n+](C)c1 | 260
c1ccccc1 [benzene] + COP(=O)([O-])OC.Cn1cc[n+](C)c1 | 3.64
C1=CCCCC1 [cyclohexene] + COP(=O)([O-])OC.Cn1cc[n+](C)c1 | 32.7
CC1CCCCC1 [methylcyclohexane] + CCn1cc[n+](C)c1.COP(=O)([O-])OC | 77.7
CCCCCCCC [octane] + CCn1cc[n+](C)c1.COP(=O)([O-])OC | 202
Cc1ccccc1 [toluene] + COP(=O)([O-])OC.Cn1cc[n+](C)c1 | 7.57
Cc1ccc(C)cc1 [1,4-dimethylbenzene] + CCn1cc[n+](C)c1.COP(=O)([O-])OC | 12.1
CC(C)CC(C)(C)C [2,2,4-trimethylpentane] + COP(=O)([O-])OC.Cn1cc[n+](C)c1 | 318
C1CCCCC1 [cyclohexane] + COP(=O)([O-])OC.Cn1cc[n+](C)c1 | 58.4
CC1CCCCC1 [methylcyclohexane] + COP(=O)([O-])OC.Cn1cc[n+](C)c1 | 83.4
Cc1ccccc1C [1,2-dimethylbenzene] + CCn1cc[n+](C)c1.COP(=O)([O-])OC | 10.2
CCCCCC [hexane] + CCn1cc[n+](C)c1.COP(=O)([O-])OC | 139
CCCCCCCCC [nonane] + COP(=O)([O-])OC.Cn1cc[n+](C)c1 | 400
CCCCCCCCCC [decane] + COP(=O)([O-])OC.Cn1cc[n+](C)c1 | 503
Cc1cccc(C)c1 [1,3-dimethylbenzene] + COP(=O)([O-])OC.Cn1cc[n+](C)c1 | 14.6
c1ccccc1 [benzene] + CCn1cc[n+](C)c1.COP(=O)([O-])OC | 3.51
Cc1ccc(C)cc1 [1,4-dimethylbenzene] + COP(=O)([O-])OC.Cn1cc[n+](C)c1 | 13.8
CCCCCCCC [octane] + COP(=O)([O-])OC.Cn1cc[n+](C)c1 | 340
C=Cc1ccccc1 [styrene] + CCn1cc[n+](C)c1.COP(=O)([O-])OC | 5.45
